Biological target: T1, ZFP SBS#1272 (synthetic)
T1 chain: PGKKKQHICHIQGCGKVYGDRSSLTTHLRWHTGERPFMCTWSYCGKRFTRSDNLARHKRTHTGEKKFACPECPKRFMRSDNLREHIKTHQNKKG
Assay: EMSA
Conditions: tags: MBP fusion
value_kind: pKd
The quantity pKd is defined as the negative base-10 logarithm of the molar concentration.

Entry under test: CAGGAGTCC (dsDNA) DNA 1: CAGGAGTCC DNA 2: GGACTCCTG . Its pKd was 10.40
